Target: UniProt O75762
Sequence (O75762 whole entry): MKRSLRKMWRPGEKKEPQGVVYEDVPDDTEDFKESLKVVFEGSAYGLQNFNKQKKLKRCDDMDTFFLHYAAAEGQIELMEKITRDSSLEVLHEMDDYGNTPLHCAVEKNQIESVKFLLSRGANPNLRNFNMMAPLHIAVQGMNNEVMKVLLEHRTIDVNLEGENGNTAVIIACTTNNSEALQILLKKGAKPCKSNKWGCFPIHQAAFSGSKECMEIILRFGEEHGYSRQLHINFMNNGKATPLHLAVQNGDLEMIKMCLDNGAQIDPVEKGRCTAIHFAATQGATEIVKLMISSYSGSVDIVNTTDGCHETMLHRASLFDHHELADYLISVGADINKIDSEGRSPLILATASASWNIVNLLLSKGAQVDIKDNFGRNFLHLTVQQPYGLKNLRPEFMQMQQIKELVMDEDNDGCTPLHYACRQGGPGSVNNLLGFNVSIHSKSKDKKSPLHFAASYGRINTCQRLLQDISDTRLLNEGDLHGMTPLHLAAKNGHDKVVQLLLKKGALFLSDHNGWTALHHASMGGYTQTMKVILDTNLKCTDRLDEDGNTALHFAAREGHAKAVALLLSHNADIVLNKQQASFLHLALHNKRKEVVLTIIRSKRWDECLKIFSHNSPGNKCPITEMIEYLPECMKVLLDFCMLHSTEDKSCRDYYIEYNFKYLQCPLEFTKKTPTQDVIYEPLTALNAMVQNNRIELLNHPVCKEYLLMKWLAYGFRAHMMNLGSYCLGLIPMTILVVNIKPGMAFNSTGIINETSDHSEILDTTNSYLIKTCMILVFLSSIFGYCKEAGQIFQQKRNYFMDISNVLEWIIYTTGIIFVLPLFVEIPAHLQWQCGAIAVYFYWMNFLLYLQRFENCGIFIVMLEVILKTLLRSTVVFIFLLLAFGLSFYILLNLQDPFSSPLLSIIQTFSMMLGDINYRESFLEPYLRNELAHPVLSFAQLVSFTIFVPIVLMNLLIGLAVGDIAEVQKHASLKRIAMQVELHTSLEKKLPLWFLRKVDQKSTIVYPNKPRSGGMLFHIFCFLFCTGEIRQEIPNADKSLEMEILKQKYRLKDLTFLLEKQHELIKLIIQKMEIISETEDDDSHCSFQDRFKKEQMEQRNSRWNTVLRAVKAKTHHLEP
Test: Assay A: TRPA1 assay (FLIPR calcium, AITC agonism, HEK293 over-expressing human TRPA1)
Conditions: read-out: hTRPA1 IC50
VALUE_TYPE: log10 IC50 (log10 of the value in nM)

* NC(=O)c1csc2ncn(Cc3nc(C[C@H](O)c4cc5cc(F)ccc5o4)no3)c(=O)c12 [Example 6] | 1.08
* NC(=O)c1csc2ncn(Cc3nc(C[C@H](O)c4cc5ccc(F)cc5s4)no3)c(=O)c12 [Example 2] | 0.85
* NC(=O)c1csc2ncn(Cc3nc(C[C@H](O)c4ccc(F)cc4)no3)c(=O)c12 [Example 8] | 1.76
* NC(=O)c1csc2ncn(Cc3nc(C[C@H](O)c4ccc(I)cc4)no3)c(=O)c12 [Example 5] | 1.08
* Cc1ccc([C@@H](O)Cc2noc(Cn3cnc4scc(C(N)=O)c4c3=O)n2)cc1 [Example 7] | 1.34
* NC(=O)c1csc2ncn(Cc3nc(C[C@H](O)c4ccc(Cl)s4)no3)c(=O)c12 [Example 9] | 1.89
* NC(=O)c1csc2ncn(Cc3nc(C[C@H](O)c4cc5ccccc5s4)no3)c(=O)c12 [Example 3] | 0.95
* NC(=O)c1csc2ncn(Cc3nc(C[C@H](O)c4ccc(Cl)cc4)no3)c(=O)c12 [Example 1] | 1.46
* COc1ccc([C@@H](O)Cc2noc(Cn3cnc4scc(C(N)=O)c4c3=O)n2)cc1 [Example 10] | 1.94
* NC(=O)c1csc2ncn(Cc3nc(C[C@H](O)c4cc5cc(Cl)ccc5o4)no3)c(=O)c12 [Example 4] | 0.95
